B1: PLD5 (parent)
chain: WIVDKQHVYIGSAGLDWQSLGQMK

Variants of: B1
Procedure summary: protein stability index of a GFP-peptide fusion (GPS, HEK-293T) (PSI 1-6); higher = more stable;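 note: lentivirally expressed fusions sorted by FACS into six bins by GFP to DsRed ratio, PSI derived from sequencing read proportions per bin multiplied by bin number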
Cond: c terminus: a fixed tail appended
Item-by-item account of protein stability index
Give the figure only, with no unit attached.

INSERT INTO measurements (mut, observed) VALUES
  ('L20N', 2);

Suppose we examine the variant A13E ; what protein stability index value has been reported?
1.72

Consider the variant shown here: W1T What is its recorded protein stability index?
2.41

I'd like to know its protein stability index. The variant in question is V3W
2.13

Which measured protein stability index value corresponds to W17V ?
2.24

Return reported protein stability index; argument: L20C
2.05

The values you see were collected from the supplement of paper PMC10567573.
